# assay comment: Phase 1 Part A: single ascending dose PK of Compound I (75 mg HME tablet) in healthy subjects
# Assay type: in vivo, human
# condition: human, in vivo, oral; single dose 450 mg, 75 mg HME tablet, fasted, N = 6; geometric mean (CV %)
# Protocol: The 75 mg tablet formulation (described in Table 4) was made using the hot melt extrusion (HME) process described in this disclosure. This 75 mg tablet was used in human clinical studies (single-dose study in healthy volunteers) and (repeat-dose study in cancer patients). […] Following repeat dosing, the steady state exposure at the highest dose evaluated (900 mg BID), AUCt=68700 ng·hr/mL, approached the target efficacious exposure (Table 7). […]
metric: AUC(0-inf) (ng·h/mL)
Write the number in ng·h/mL without appending the unit.

Q) Recorded AUC(0-inf) of O=C(c1c(F)ccc(NS(=O)(=O)N2CC[C@@H](F)C2)c1F)c1c[nH]c2ncc(-c3cnc(C4CC4)nc3)cc12 , please.
A) 22400

---

# assay comment: Phase 1 Part B: effect of CYP3A4 inhibitor cobicistat on PK of Compound I (HME) in healthy subjects
# Assay type: in vivo, human
# condition: human, in vivo, oral; Compound I 900 mg single dose alone, Part B, HME, fasted, N = 10; geometric mean (% CV)
metric: Cmax
A complete answer gives the number followed by the unit.

Q) Recorded Cmax of O=C(c1c(F)ccc(NS(=O)(=O)N2CC[C@@H](F)C2)c1F)c1c[nH]c2ncc(-c3cnc(C4CC4)nc3)cc12 , please.
A) 11400 ng/mL

---

# assay comment: Phase 1 Part B: effect of CYP3A4 inhibitor cobicistat on PK of Compound I (HME) in healthy subjects
# Assay type: in vivo, human
# condition: human, in vivo, oral; Compound I 300 mg single dose alone, Part B, HME, fasted, N = 8; geometric mean (% CV)
metric: half-life (h)
Write the number in h without appending the unit.

Q) Recorded half-life of O=C(c1c(F)ccc(NS(=O)(=O)N2CC[C@@H](F)C2)c1F)c1c[nH]c2ncc(-c3cnc(C4CC4)nc3)cc12 , please.
A) 9.96

---

# assay comment: Phase 1 Part B: effect of CYP3A4 inhibitor cobicistat on PK of Compound I (HME) in healthy subjects
# Format: in vivo, human
# condition: human, in vivo, oral; Compound I 300 mg single dose alone, Part B, HME, fasted, N = 8; geometric mean (% CV)
metric: Cmax (µg/mL)
Write the number in µg/mL without appending the unit.

Q) Recorded Cmax of O=C(c1c(F)ccc(NS(=O)(=O)N2CC[C@@H](F)C2)c1F)c1c[nH]c2ncc(-c3cnc(C4CC4)nc3)cc12 , please.
A) 4.84

---

# assay comment: Phase 1 Part A: single ascending dose PK of Compound I (75 mg HME tablet) in healthy subjects
# Type: in vivo, human
# condition: human, in vivo, oral, 450 mg, single dose 450 mg, 75 mg HME tablet, fasted, N = 6; geometric mean (CV %); read-out: AUC0-24
metric: AUC(0-t) (ng·h/mL)
Write the number in ng·h/mL without appending the unit.

Q) Recorded AUC(0-t) of O=C(c1c(F)ccc(NS(=O)(=O)N2CC[C@@H](F)C2)c1F)c1c[nH]c2ncc(-c3cnc(C4CC4)nc3)cc12 , please.
A) 21800

---

# assay comment: Phase 1 Part A: single ascending dose PK of Compound I (75 mg HME tablet) in healthy subjects
# Type: in vivo, human
# condition: human, in vivo, oral; single dose 150 mg, 75 mg HME tablet, fasted, N = 6; geometric mean (CV %)
metric: half-life (h)
Write the number in h without appending the unit.

Q) Recorded half-life of O=C(c1c(F)ccc(NS(=O)(=O)N2CC[C@@H](F)C2)c1F)c1c[nH]c2ncc(-c3cnc(C4CC4)nc3)cc12 , please.
A) 8.18

---

# assay comment: Phase 1 Part A: single ascending dose PK of Compound I (75 mg HME tablet) in healthy subjects
# Type: in vivo, human
# condition: human, in vivo, oral, 300 mg, single dose 300 mg, 75 mg HME tablet, fasted, N = 5; geometric mean (CV %); read-out: AUC0-24
metric: AUC(0-t) (ng·h/mL)
Write the number in ng·h/mL without appending the unit.

Q) Recorded AUC(0-t) of O=C(c1c(F)ccc(NS(=O)(=O)N2CC[C@@H](F)C2)c1F)c1c[nH]c2ncc(-c3cnc(C4CC4)nc3)cc12 , please.
A) 12600

---

# assay comment: Phase 1 Part A: single ascending dose PK of Compound I (75 mg HME tablet) in healthy subjects
# Format: in vivo, human
# condition: human, in vivo, oral; single dose 300 mg, 75 mg HME tablet, fasted, N = 5; geometric mean (CV %); read-out: Vz/F
metric: Vd/F (L)
Write the number in L without appending the unit.

Q) Recorded Vd/F of O=C(c1c(F)ccc(NS(=O)(=O)N2CC[C@@H](F)C2)c1F)c1c[nH]c2ncc(-c3cnc(C4CC4)nc3)cc12 [Compound I] , please.
A) 313

---

# assay comment: Phase 1 Part B: effect of CYP3A4 inhibitor cobicistat on PK of Compound I (HME) in healthy subjects
# Assay type: in vivo, human
# condition: human, in vivo, oral; Compound I 300 mg single dose alone, Part B, HME, fasted, N = 8; median (minimum-maximum)
metric: Tmax (h)
Write the number in h without appending the unit.

Q) Recorded Tmax of O=C(c1c(F)ccc(NS(=O)(=O)N2CC[C@@H](F)C2)c1F)c1c[nH]c2ncc(-c3cnc(C4CC4)nc3)cc12 , please.
A) 2

---

# assay comment: Phase 1 Part A: single ascending dose PK of Compound I (75 mg HME tablet) in healthy subjects
# Assay type: in vivo, human
# condition: human, in vivo, oral, 900 mg, single dose 900 mg, 75 mg HME tablet, fasted, N = 6; geometric mean (CV %); read-out: AUC0-24
# Procedure: The 75 mg tablet formulation (described in Table 4) was made using the hot melt extrusion (HME) process described in this disclosure. This 75 mg tablet was used in human clinical studies (single-dose study in healthy volunteers) and (repeat-dose study in cancer patients). […] Following repeat dosing, the steady state exposure at the highest dose evaluated (900 mg BID), AUCt=68700 ng·hr/mL, approached the target efficacious exposure (Table 7). […]
metric: AUC(0-t) (ng·h/mL)
Write the number in ng·h/mL without appending the unit.

Q) Recorded AUC(0-t) of O=C(c1c(F)ccc(NS(=O)(=O)N2CC[C@@H](F)C2)c1F)c1c[nH]c2ncc(-c3cnc(C4CC4)nc3)cc12 , please.
A) 39200

---

# assay comment: Phase 1 Part A: single ascending dose PK of Compound I (75 mg HME tablet) in healthy subjects
# Format: in vivo, human
# condition: human, in vivo, oral, 450 mg, single dose 450 mg, 75 mg HME tablet, fasted, N = 6; geometric mean (CV %); read-out: AUC0-t
metric: AUC(0-t) (µg·h/mL)
Write the number in µg·h/mL without appending the unit.

Q) Recorded AUC(0-t) of O=C(c1c(F)ccc(NS(=O)(=O)N2CC[C@@H](F)C2)c1F)c1c[nH]c2ncc(-c3cnc(C4CC4)nc3)cc12 [Compound I] , please.
A) 22.1

---

# assay comment: Phase 1 Part B: effect of CYP3A4 inhibitor cobicistat on PK of Compound I (HME) in healthy subjects
# Type: in vivo, human
# condition: human, in vivo, oral, 900 mg, Compound I 900 mg single dose alone, Part B, HME, fasted, N = 10; geometric mean (% CV)
metric: AUC(0-t) (ng·h/mL)
Write the number in ng·h/mL without appending the unit.

Q) Recorded AUC(0-t) of O=C(c1c(F)ccc(NS(=O)(=O)N2CC[C@@H](F)C2)c1F)c1c[nH]c2ncc(-c3cnc(C4CC4)nc3)cc12 , please.
A) 34800

---

# assay comment: Phase 1 Part A: single ascending dose PK of Compound I (75 mg HME tablet) in healthy subjects
# Format: in vivo, human
# condition: human, in vivo, oral; single dose 450 mg, 75 mg HME tablet, fasted, N = 6; geometric mean (CV %)
metric: half-life (h)
Write the number in h without appending the unit.

Q) Recorded half-life of O=C(c1c(F)ccc(NS(=O)(=O)N2CC[C@@H](F)C2)c1F)c1c[nH]c2ncc(-c3cnc(C4CC4)nc3)cc12 [Compound I] , please.
A) 8.36

---

# assay comment: Phase 1 Part A: single ascending dose PK of Compound I (75 mg HME tablet) in healthy subjects
# Format: in vivo, human
# condition: human, in vivo, oral; single dose 900 mg, 75 mg HME tablet, fasted, N = 6; median (minimum-maximum); read-out: tmax
metric: Tmax (h)
Write the number in h without appending the unit.

Q) Recorded Tmax of O=C(c1c(F)ccc(NS(=O)(=O)N2CC[C@@H](F)C2)c1F)c1c[nH]c2ncc(-c3cnc(C4CC4)nc3)cc12 [Compound I] , please.
A) 1
